Hi there, I'd appreciate the recorded folding stability dG unfold for every entry that follows.
Assay: folding stability dG unfold from trypsin proteolysis; higher = more stable
Answer format: numeric, kcal/mol implied, no suffix.

Exercise: Read off the recorded folding stability dG unfold for SAGGSYTVEELPPGGILRITFTVPKSRPAEVPLELKAPDGTPVDVESYSITPVGDTNVITYTIKVPLSAGGS [r16_499_JUSTAS]
Solution: 1.57

Exercise: Supply measured folding stability dG unfold of SAGGRRPVTAEEAADRLMKELGIPGLKNIKDVTMEYEVYDPDGKPWSRVDITIKIKMPPEQRDRLKKLSAGG [r13_552_TrROS] in your reply.
Solution: 0.607

Exercise: Provide one value: measured folding stability dG unfold of MNIKVTSVLPDGTVVVTAEAPLPDGSSIRVTAARRGKDSYVLVTVNVYPTKVVADIKEVAPVSPGSPEEGGS [r1_53_TrMRF]
Solution: 2.21

Exercise: Let me know recorded folding stability dG unfold for SAGKPIDLGEVEVEISPVSYDPETGKLTYQARLVTKDGKPIYTASVTYDPKTGKFSISVTPIGYDPSAFSAG [r5_200_TrMRF] , thanks.
Solution: 2.26

Exercise: # return recorded folding stability dG unfold for input SAGKITLDGFTLDGEQTLTLTVEVPAPGGGTRTETFTATVTFDPETGTAHVPVTLPNGEELPFTFKVDASAG [r5_743_TrMRF]
Solution: 1.18

Exercise: Supply folding stability dG unfold value. Item: SAGGSMVRVTIEDKDGKEHWIMIPPGMDPNDVKQQIKKFLEDNGWKVKDVEVETYPPGWAMIRVRVSAGGSA [r2_148_TrROS]
Solution: 1.88

Exercise: Kindly indicate its recorded folding stability dG unfold. Item: SAGGKVEVELEDGKLRVKVFDKNGKLVEEVEVELKPVTIVIPGLSEEELQELKEKFPGAKITILEGQKSAGG [r13_235_TrROS_Hall]
Solution: 1.73

# credit: the supplement of paper PMC12764529
